# reported GI50; entries follow
system: NCI/ADR-RES; experiment: NCI tumour cell line growth inhibition, 48 h
Activity calls are given as the source filed them. Cut-off read from the data, not from the text of the source: active = GI50 up to about 1.1 µM and inactive = higher.

{"columns": ["compound", "GI50"],
 "data": [
  ["c1ccc(CNCCCNCCCCNCCCNCc2ccccc2)cc1", "38.7 µM (inactive)"],
  ["COc1cc2c(c(O)c1OC)C(=O)[C@@H]1CCC(=O)N1C2", "> 100 µM (inactive)"],
  ["COc1cc(C)c(/C=C2/N=C(c3ccccc3)OC2=O)c([N+](=O)[O-])c1OC", "> 100 µM (inactive)"],
  ["O=[N+]([O-])c1ccc(Cl)cc1-n1nc(-c2ccccc2)cc1-c1ccccc1", "> 100 µM (inactive)"],
  ["NCCCCC(N)C(=O)NCCNc1ccc(NCCNC(=O)C(N)CCCCN)c2c1C(=O)c1ccccc1C2=O (configuration not stated)", "28.2 µM (inactive)"],
  ["COC(NC(N)=O)C(=O)O (configuration not stated)", "> 100 µM (inactive)"],
  ["O=C1CCSSCCC(=O)Nc2ccccc2N1", "> 100 µM (inactive)"],
  ["Cc1ccc2c(n1)C(=O)C=CC2=O", "18.1 µM (inactive)"],
  ["CSc1nc(SC)c2c(C)cn(Cc3ccccc3)c2n1", "> 100 µM (inactive)"],
  ["COc1ccc(C2C(=O)c3c(OC)cc(OC)cc3OC2c2cccnc2)cc1 (configuration not stated)", "> 100 µM (inactive)"],
  ["O=C1/C(=C\\c2ccco2)Oc2ccccc21", "> 100 µM (inactive)"],
  ["Nc1nc2c(c(=O)[nH]1)C(c1ccccc1)CC(=O)N2 (configuration not stated)", "> 100 µM (inactive)"],
  ["CCN(CC)c1c(-c2c(OC(C)C)c(=O)c2=O)c(=O)n2ccsc2c1OC(C)=O", "> 100 µM (inactive)"],
  ["COC(OC)C1OCC(n2cc(F)c(=O)[nH]c2=O)C1O (configuration not stated)", "> 100 µM (inactive)"],
  ["Cn1ccnc1CC(C)(O)c1ccccc1 (configuration not stated)", "> 100 µM (inactive)"],
  ["CCOC(=O)/C(C(N)=O)=C(/O)c1cnccn1", "> 100 µM (inactive)"],
  ["Cc1nc(Cl)c(CBr)c(Cl)n1", "2.41 µM (inactive)"],
  ["COc1ccc(/N=C2\\C(=S)N(c3ccc(OC)cc3)/C(=N/S(=O)(=O)c3ccccc3)N2c2ccccc2)cc1", "23.6 µM (inactive)"],
  ["CC(=O)N1C(=O)CC2(N=C(C)CC2=O)c2ccccc21 (configuration not stated)", "> 10 µM (inactive)"],
  ["COc1ccc(CCNC(=O)c2ccccc2C2c3ccc(OCc4ccccc4)cc3Oc3cc(OCc4ccccc4)ccc32)cc1OC", "> 100 µM (inactive)"],
  ["Cc1ccc(C(=O)Oc2ccccc2)cc1/N=N/N(C)C", "> 100 µM (inactive)"],
  ["[O-][n+]1nc(N2CCOCC2)nc2ccccc21", "> 100 µM (inactive)"],
  ["O=C(CC(=O)N(C(=O)c1ccccc1)c1ccc(Cl)cc1)N/N=C\\c1ccccc1O", "50.6 µM (inactive)"],
  ["COc1cc(/C=C/C(=O)N[C@@H]2C(=O)N3[C@@H]2SC(C)(C)[C@@H]3C(=O)O)ccc1O", "> 100 µM (inactive)"],
  ["O=c1[nH]nc(Nc2ccc(Cl)cc2)c2nnn(C3CCCCC3)c12", "32.1 µM (inactive)"],
  ["CCOC(=O)c1c(SC(=O)c2ccc(C(C)(C)C)cc2)n(-c2ccccc2)c(=S)n(-c2ccccc2)c1=O", "> 100 µM (inactive)"],
  ["O=c1c(C(c2ccc(-c3ccccc3)cc2)c2c(O)oc3ccccc3c2=O)c(O)oc2ccccc12", "21.6 µM (inactive)"],
  ["NCCCNOCCCN", "> 100 µM (inactive)"],
  ["O=c1c(C(c2cc(OCc3ccccc3)cc(OCc3ccccc3)c2)c2c(O)oc3ccccc3c2=O)c(O)oc2ccccc12", "17.6 µM (inactive)"],
  ["O=C1NC2c3c(I)sc(I)c3C(=O)C2O1 (configuration not stated)", "6.84 µM (inactive)"],
  ["COc1ccccc1N1CCN(CCCNC(=O)c2cc(Cl)c(N)c(Cl)c2)CC1", "36.8 µM (inactive)"],
  ["Cc1cc2c(cc1Cl)SC(NNc1ccc([N+](=O)[O-])cc1)=NS2(=O)=O", "> 10 µM (inactive)"]
]}

====

# reported GI50; entries follow
system: OVCAR-3; experiment: NCI tumour cell line growth inhibition, 48 h
The source made the active and inactive calls. Rule as the data show it: active = GI50 up to about 1.1 µM and inactive = higher.

{"columns": ["compound", "GI50"],
 "data": [
  ["CCOC(=O)[C@@]12C3C=CC(CC3)[C@]1(C(=O)c1ccccc1)C(=O)C(=O)N2c1ccccc1 (stereo partly drawn)", "> 100 µM (inactive)"],
  ["C=CCC1(CN(C)C)CC/C(=C\\c2ccc3c(c2)OCO3)C1=O (stereo not drawn)", "65.3 µM (inactive)"],
  ["CN(C)C(=S)/N=c1\\ss/c(=N\\C(=S)N(C)C)n1-c1ccc2c(c1)OCO2", "> 100 µM (inactive)"],
  ["Cc1ccc(S(=O)(=O)OCC/C(=C\\[Si](C)(C)C)c2ccccc2)cc1", "> 100 µM (inactive)"],
  ["O=c1oc2c3ccc4ccccc4c3n(CCCN3CCCCC3)c2c2ccccc12", "> 100 µM (inactive)"],
  ["OC(c1ccc(Cl)cc1)(c1ccc(Cl)cc1)c1cncnc1", "17.1 µM (inactive)"],
  ["COc1ccc2c(c1)O[C@@H]1[C@@H](OC3OC(CO)C(O)C(O)C3O)Oc3cc(OC)c(OC)cc3[C@]1(O)C2=O (stereo partly drawn)", "> 100 µM (inactive)"],
  ["O=C(O)CC12C3C4C5C3C1C5C42 (stereo not drawn)", "> 100 µM (inactive)"],
  ["CS(=O)(=O)Nc1ccc(NCc2c[nH]c3ccc4ncccc4c23)cc1", "31.1 µM (inactive)"],
  ["CC(=O)N1C(=O)CC2(N=C(C)CC2=O)c2ccccc21 (stereo not drawn)", "> 10 µM (inactive)"],
  ["CN(/N=C\\c1ccc2ccccc2c1)C1=NCCCCN1", "36.5 µM (inactive)"],
  ["Cn1cc(C(=O)c2ccccc2)c2ccccc2c1=O", "> 100 µM (inactive)"],
  ["CC(C)CN(CC#N)CC(C)C", "> 100 µM (inactive)"]
]}

====

Dear all, this message contains GI50 results, target or system HCT-15.

{"columns": ["structure", "tested-system", "GI50"],
 "data": [
  ["CCN(CC)c1c(-c2c(OC(C)C)c(=O)c2=O)c(=O)n2ccsc2c1OC(C)=O", "HCT-15", "> 100 µM"],
  ["Nc1ncnc2c1ccn2CC#CCO", "HCT-15", "> 100 µM"],
  ["CN/C(N)=N/N=C1/C(=O)Nc2ccccc21", "HCT-15", "> 100 µM"],
  ["COc1ccc(NC(=O)CSc2nc(C)nc3c2sc(=S)n3-c2ccccc2)cc1", "HCT-15", "> 10 µM"]
]}

====

# reported GI50; entries follow
system: RPMI-8226; experiment: NCI tumour cell line growth inhibition, 48 h
Activity calls are given as the source filed them. No stated cut-off is given here; in the data, active = GI50 up to about 1.1 µM and inactive = higher.

{"columns": ["compound", "GI50"],
 "data": [
  ["Cc1ccc(C(=O)Oc2ccccc2)cc1/N=N/N(C)C", "> 100 µM (inactive)"],
  ["O=C(Nc1cc(Cl)c(Cl)cc1Cl)C(=O)C(C(=O)c1ccc(Cl)c(Cl)c1)C1OC(=O)c2ccccc21 (stereo not drawn)", "15.6 µM (inactive)"],
  ["CN(CC1(CO)CCC1)c1cc(Cl)nc(N)n1", "> 100 µM (inactive)"]
]}

====

# reported GI50; entries follow
system: CAKI-1; assay: NCI tumour cell line growth inhibition, 48 h
Activity calls are given as the source filed them. No stated cut-off is given here; in the data, active = GI50 up to about 1.1 µM and inactive = higher.
readout-label: GI50

{"columns": ["molecule", "recorded-result"],
 "data": [
  ["COC(=O)/C=C\\C(C#N)(C#N)/N=C/c1ccc(OC)cc1", "2.08 µM (inactive)"],
  ["CCOC(=O)c1cn2c(ccc3sc4ccccc4c(=O)c32)n1", "> 100 µM (inactive)"],
  ["O=C(O)c1ccccc1C(=O)c1ccc2c(c1)Cc1ccccc1-2", "> 100 µM (inactive)"],
  ["COc1ccc(OC)c2cc(C3(C)SCCCS3)ccc12", "61 µM (inactive)"],
  ["COc1ccc(NC(=O)CC/C(CC(=O)C(C)(C)C)=N\\NC(=O)C(N)=O)cc1", "> 100 µM (inactive)"],
  ["COC(=O)C1CCCC2(C1)OCCO2 (stereo unspecified)", "> 100 µM (inactive)"],
  ["O=C1CCCCCCCCCCC(=O)C2CCOCCOCCOCCC1Cc1cccc(n1)C2", "41.2 µM (inactive)"],
  ["COc1cc(O)c2c(c1)OCC1(Cc3cc(OC)c(OC)cc31)C2=O (stereo unspecified)", "52 µM (inactive)"],
  ["CC1=C(C)C1[N+](=O)[O-]", "> 100 µM (inactive)"],
  ["CC(=O)O[C@H]1C(=O)[C@@]2(C)[C@H]([C@H](OC(=O)c3ccccc3)[C@]3(O)C[C@H](OC(=O)[C@H](O)[C@@H](NC(=O)c4ccccc4)c4ccccc4C)C(C)=C1C3(C)C)[C@]1(OC(C)=O)CO[C@@H]1C[C@@H]2O", "5.35 µM (inactive)"],
  ["CN(C)CCNC(=O)Cn1ccc(=O)c2ccc([N+](=O)[O-])cc21", "> 100 µM (inactive)"],
  ["COC(=O)c1nn(C(=N)c2ccc(Cl)cc2)c2c1CCC2", "> 100 µM (inactive)"],
  ["COC(=O)Nc1nc2cc(C(=O)c3cccs3)ccc2[nH]1", "1.11 µM (active)"],
  ["Cc1c(NC(=O)CCCl)c(=O)oc2c(C)c3occc(=O)c3cc12", "42.1 µM (inactive)"],
  ["CO[C@@H]1C=C[C@@]23c4cc5c(cc4CN(C[C@@H]2O)[C@H]3C1)OCO5 [(+)-HAEMANTHAMINE]", "6.22 µM (inactive)"],
  ["O=C1CN(c2ccccc2)C(=O)CN1CCN1CC(=O)N(c2ccccc2)CC1=O", "> 100 µM (inactive)"],
  ["COc1ccc(C2C(C(=O)O)=C(CO)Oc3cc4c(cc32)OCO4)cc1 (stereo unspecified)", "> 100 µM (inactive)"],
  ["N#C[BH2-][n+]1ccc(C(=O)NNCc2ccc(F)cc2)cc1", "> 100 µM (inactive)"],
  ["NNc1ccccc1Cl", "30.9 µM (inactive)"],
  ["C=C(C#N)C1OCC2OC(C)(C)OC21 (stereo unspecified)", "23.4 µM (inactive)"],
  ["COc1ccc(/N=C2\\C(=S)N(c3ccc(OC)cc3)/C(=N/S(=O)(=O)c3ccccc3)N2c2ccccc2)cc1", "13.2 µM (inactive)"],
  ["Fc1cccc(Cl)c1C1SCc2nc3cc4ccccc4cc3n21 (stereo unspecified)", "99.1 µM (inactive)"],
  ["CC1OC(OC2C(O[C@H]3CC[C@@H]4C(=CC[C@@H]5[C@@]4(C)C(=O)C[C@]4(C)[C@@H]([C@H](C)CC[C@@H](O)C(C)(C)O)CC[C@@]54C)C3(C)C)OC(CO)C(O)C2O)C(O)C(O)C1O (stereo partly specified)", "> 100 µM (inactive)"],
  ["C#CCCOC(=O)CC1=C(C)/C(=C/c2ccc([S+](C)[O-])cc2)c2ccc(F)cc21 (stereo unspecified)", "6.19 µM (inactive)"],
  ["CC(=O)c1ccc(N2CCN(C3=C(Cl)C(=O)c4c(O)ccc(O)c4C3=O)CC2)cc1", "4.89 µM (inactive)"],
  ["N=C(N)C(/N=N\\c1ccccc1)C(N)=O (stereo unspecified)", "64.7 µM (inactive)"],
  ["C=C1C(=O)C23CC1CCC2C12CO[C@@H]4OCC(C)(CC[C@@H]1OC3=O)C42 (stereo partly specified)", "2.38 µM (inactive)"],
  ["CSc1nc(SC)c2c(CN=[N+]=[N-])c(Br)n(Cc3ccccc3)c2n1", "> 100 µM (inactive)"],
  ["COc1ccc(CCN2CCN(CCc3ccc(OC)cc3)CC2)cc1", "> 100 µM (inactive)"],
  ["CN(C)CC1CCC(CN(C)C)C1=O (stereo unspecified)", "0.736 µM (active)"],
  ["Cc1n[nH]c(N)c1C(N)=O", "> 100 µM (inactive)"]
]}
